# target: human 11β-HSD1 microsome fraction (Homo sapiens, UniProt P28845)
# Sequence (P28845 whole entry): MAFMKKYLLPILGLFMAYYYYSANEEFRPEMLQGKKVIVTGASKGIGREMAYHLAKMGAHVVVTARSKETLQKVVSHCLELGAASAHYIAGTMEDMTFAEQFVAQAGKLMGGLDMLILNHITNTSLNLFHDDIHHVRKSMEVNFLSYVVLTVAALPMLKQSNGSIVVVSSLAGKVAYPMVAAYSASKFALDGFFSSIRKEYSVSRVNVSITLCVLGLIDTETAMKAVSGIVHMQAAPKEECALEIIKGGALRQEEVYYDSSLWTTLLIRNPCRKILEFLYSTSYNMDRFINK
I'd appreciate it if you could supply IC50 values for the items below.
One number for each entry, in nM.

Answered examples (6):
compound | target | units | IC50
C[C@H](NC1=NS(=O)(=O)[C@H](Cc2ccc(N3CCNCC3)cc2)C(C)(C)O1)c1ccccc1F [Example 45] | human 11β-HSD1 microsome fraction (Homo sapiens, UniProt P28845) | nM | 44
CC1(C)OC(N[C@@H](CCO)c2ccccc2F)=NS(=O)(=O)C1Cc1ccc(C2=CCNCC2)cc1 (stereo partly drawn) [Example 23] | human 11β-HSD1 microsome fraction (Homo sapiens, UniProt P28845) | nM | 17
C[C@H](NC1=NS(=O)(=O)[C@H](Cc2ccc(NCCN(C)C)cc2)C(C)(C)O1)c1ccccc1F [Example 52] | human 11β-HSD1 microsome fraction (Homo sapiens, UniProt P28845) | nM | 62
CN(CCO)CCCc1ccc(CC2C(C)(C)OC(N[C@@H](CCO)c3ccccc3F)=NS2(=O)=O)cc1 (stereo partly drawn) [Example 36] | human 11β-HSD1 microsome fraction (Homo sapiens, UniProt P28845) | nM | 38
CC1(C)OC(NC23CCC(F)(CC2)CC3)=NS(=O)(=O)C1Cc1ccccc1 (stereo not drawn) [Example 20] | human 11β-HSD1 microsome fraction (Homo sapiens, UniProt P28845) | nM | 5
CC1(C)OC(N[C@@H](CCO)c2ccccc2Cl)=NS(=O)(=O)C1Cc1ccccc1 (stereo partly drawn) [Example 11] | human 11β-HSD1 microsome fraction (Homo sapiens, UniProt P28845) | nM | 8

Would you mind listing IC50 for each of the following compounds?
1. CNCCCc1ccc(CC2C(C)(C)OC(N[C@@H](CCO)c3ccccc3F)=NS2(=O)=O)cc1 (stereo partly drawn) [Example 33]
2. CC1(C)OC(N[C@@H](CCO)c2ccccc2F)=NS(=O)(=O)C1Cc1ccc(C2CCNCC2)cc1 (stereo partly drawn) [Example 22]
3. CN(C)CCCc1ccc(CC2C(C)(C)OC(N[C@@H](CCO)c3ccccc3F)=NS2(=O)=O)cc1 (stereo partly drawn) [Example 32]
4. C[C@H](NC1=NS(=O)(=O)C(Cc2ccc(N3CCN(C(C)(C)C)CC3)cc2)C(C)(C)O1)c1ccccc1F (stereo partly drawn) [Example 39]
5. C[C@H](NC1=NS(=O)(=O)[C@H](Cc2ccc(C3CCN(C)CC3)cc2)C(C)(C)O1)c1ccccc1F [Example 50]

[30, 7, 32, 17, 52]

Would you mind listing IC50 for each of the following compounds?
1. CC1(C)OC(N[C@@H](CCO)c2ccccc2F)=NS(=O)(=O)C1Cc1ccc(C2CCN(C3CC3)CC2)cc1 (stereo partly drawn) [Example 28]
2. Cc1ccc(F)cc1[C@H](CCO)NC1=NS(=O)(=O)C(Cc2ccccc2)C(C)(C)O1 (stereo partly drawn) [Example 19]

1: 9; 2: 4

Would you mind listing IC50 for each of the following compounds?
1. CC1(C)OC(N[C@@H](CCO)c2ccccc2F)=NS(=O)(=O)C1Cc1ccc(C2CCN(CC3CC3)CC2)cc1 (stereo partly drawn) [Example 30]
2. C[C@H](NC1=NS(=O)(=O)C(Cc2ccc(C3CCN(CCO)CC3)cc2)C(C)(C)O1)c1ccccc1F (stereo partly drawn) [Example 37]

29
37

---

Test system human 11β-HSD1 microsome fraction (Homo sapiens), IC50 listed for each of the compounds.
Answers are plain numbers, in nM.

Answered examples (3):
compound | IC50, nM
C[C@H](NC1=NS(=O)(=O)C(Cc2ccc(C3CCNCC3)cc2)C(C)(C)O1)c1ccccc1F (stereo partly shown) | 7
CC1(C)OC(N[C@@H](CCO)c2ccccc2F)=NS(=O)(=O)[C@H]1Cc1ccc(C2CCNCC2)cc1 | 11
CC1(C)OC(N[C@@H](CCO)c2ccccc2F)=NS(=O)(=O)C1(C)Cc1ccc(-c2ccccn2)cc1 (stereo partly shown) | 6

Which IC50 reading was recorded for the compound CN1CCC(c2ccc(CC3C(C)(C)OC(N[C@@H](CCO)c4ccccc4F)=NS3(=O)=O)cc2)CC1 (stereo partly shown) ? 20
